assayProtocol: In vitro metabolic stability in rat plasma
Assay type: in vitro ADME
experimentalSetup: 37°C, compound 10 μM
reportedMetric: Rat plasma T1/2
Entry format: amount then unit.

{"columns": ["compound", "reportedMetric", "observed"],
 "data": [
  ["CC(OC(=O)N(C)c1ncccc1COC(=O)CN)[n+]1cnn(C[C@](O)(c2ccc(F)cc2F)[C@@H](C)c2ncncc2F)c1.[Cl-] (some centres unmarked)", "Rat plasma T1/2", "1.23 ± 0.45 min"],
  ["CC(OC(=O)N(C)c1ncccc1COC(=O)CN(C)C)[n+]1cnn(C[C@](O)(c2ccc(F)cc2F)[C@@H](C)c2ncncc2F)c1.Cl.Cl.[Cl-] (some centres unmarked)", "Rat plasma T1/2", "8.88 ± 0.55 min"]
]}

Given item CC(O)C(N)C(=O)OCc1cccnc1N(C)C(=O)OC(C)[n+]1cnn(CC(O)(c2ccc(F)cc2F)C(C)c2ncncc2F)c1.Cl.Cl.[Cl-] (centres unmarked) , the value recorded as its Rat plasma T1/2 is 1.95 ± 0.87 min

Given item CC(OC(=O)N(C)c1ncccc1COC(=O)C(N)CO)[n+]1cnn(CC(O)(c2ccc(F)cc2F)C(C)c2ncncc2F)c1.Cl.Cl.[Cl-] (centres unmarked) , the value recorded as its Rat plasma T1/2 is 1.58 ± 0.95 min

Given item CC(OC(=O)N(C)c1ncccc1COC(=O)[C@@H](N)CCN)[n+]1cnn(C[C@](O)(c2ccc(F)cc2F)[C@@H](C)c2ncncc2F)c1.[Cl-] (some centres unmarked) , the value recorded as its Rat plasma T1/2 is 8.25 ± 1.28 min

Given item CN[C@@H](CSC(=O)OC(C)[n+]1cnn(C[C@](O)(c2ccc(F)cc2F)[C@@H](C)c2ncncc2F)c1)C(=O)O.Cl.[Cl-] (some centres unmarked) , the value recorded as its Rat plasma T1/2 is 11.85 ± 3.77 min

Given item CC(OC(=O)N(C)c1ncccc1COC(=O)[C@@H](N)CCCCN)[n+]1cnn(C[C@](O)(c2ccc(F)cc2F)[C@@H](C)c2ncncc2F)c1.[Cl-] (some centres unmarked) , the value recorded as its Rat plasma T1/2 is 0.78 ± 0.86 min

Given item CC(OC(=O)N(C)c1ncccc1COC(=O)[C@@H](N)CCCN)[n+]1cnn(C[C@](O)(c2ccc(F)cc2F)[C@@H](C)c2ncncc2F)c1.Cl.Cl.Cl.[Br-] (some centres unmarked) , the value recorded as its Rat plasma T1/2 is 10.58 ± 2.95 min

====

assayProtocol: Pharmacokinetics after single intravenous administration in rats (plasma voriconazole)
experimentalSetup: rat, in vivo, 2.5 mg/kg
reportedMetric: T1/2

{"columns": ["compound", "T1/2"],
 "data": [
  ["CC(OC(=O)OCCCCCOP(=O)(O)O)[n+]1cnn(C[C@](O)(c2ccc(F)cc2F)[C@@H](C)c2ncncc2F)c1 (stereo partly shown)", "similar"],
  ["CC(OC(=O)N(C)c1ncccc1CN)[n+]1cnn(C[C@](O)(c2ccc(F)cc2F)[C@@H](C)c2ncncc2F)c1 (stereo partly shown)", "similar"],
  ["CC(OC(=O)NCC[C@H](N)C(=O)O)[n+]1cnn(C[C@](O)(c2ccc(F)cc2F)[C@@H](C)c2ncncc2F)c1.Cl.[Cl-] (stereo partly shown)", "similar"],
  ["CC(OC(=O)SC[C@H](N)C(=O)O)[n+]1cnn(C[C@](O)(c2ccc(F)cc2F)[C@@H](C)c2ncncc2F)c1 (stereo partly shown)", "similar"],
  ["C[C@@H](c1ncncc1F)[C@](O)(Cn1c[n+](CC(=O)O)cn1)c1ccc(F)cc1F", "similar"],
  ["CC(OC(=O)N(C)c1ncccc1COC(=O)CN(C)C)[n+]1cnn(C[C@](O)(c2ccc(F)cc2F)[C@@H](C)c2ncncc2F)c1.Cl.Cl.[Cl-] (stereo partly shown)", "2.74 ± 0.78 h"],
  ["CC(OC(=O)N(C)c1ncccc1COC(=O)[C@@H](N)CCCNC(N)=O)[n+]1cnn(C[C@](O)(c2ccc(F)cc2F)[C@@H](C)c2ncncc2F)c1.[Cl-] (stereo partly shown)", "similar"],
  ["CC(OC(=O)N(C)c1ncccc1COC(=O)C[C@H](N)C(=O)O)[n+]1cnn(C[C@](O)(c2ccc(F)cc2F)[C@@H](C)c2ncncc2F)c1.[Cl-] (stereo partly shown)", "similar"]
]}

Given item CC(OC(=O)N(C)c1ncccc1COC(=O)CN)[n+]1cnn(C[C@](O)(c2ccc(F)cc2F)[C@@H](C)c2ncncc2F)c1.[Cl-] (stereo partly shown) , the value recorded as its T1/2 is 2.14 ± 0.98 h

Given item CC(OC(=O)OCCCCOP(=O)(O)O)[n+]1cnn(C[C@](O)(c2ccc(F)cc2F)[C@@H](C)c2ncncc2F)c1 (stereo partly shown) , the value recorded as its T1/2 is similar

Given item CC(O)C(N)C(=O)OCc1cccnc1N(C)C(=O)OC(C)[n+]1cnn(CC(O)(c2ccc(F)cc2F)C(C)c2ncncc2F)c1.Cl.Cl.[Cl-] (stereo not shown) , the value recorded as its T1/2 is 2.65 ± 0.88 h

Given item CC(OC(=O)N(C)c1ncccc1COC(=O)C(N)CO)[n+]1cnn(CC(O)(c2ccc(F)cc2F)C(C)c2ncncc2F)c1.Cl.Cl.[Cl-] (stereo not shown) , the value recorded as its T1/2 is 2.85 ± 1.78 h

Given item CC(OC(=O)OCCOCCOCCOP(=O)(O)O)[n+]1cnn(C[C@](O)(c2ccc(F)cc2F)[C@@H](C)c2ncncc2F)c1 (stereo partly shown) , the value recorded as its T1/2 is similar

Given item CNCc1cccnc1N(C)C(=O)OC(C)[n+]1cnn(C[C@](O)(c2ccc(F)cc2F)[C@@H](C)c2ncncc2F)c1 (stereo partly shown) , the value recorded as its T1/2 is similar

Given item CC(OC(=O)NCC(=O)O)[n+]1cnn(C[C@](O)(c2ccc(F)cc2F)[C@@H](C)c2ncncc2F)c1 (stereo partly shown) , the value recorded as its T1/2 is similar

Given item CC(OC(=O)N(C)c1ccccc1COC(=O)[C@@H](N)CCCN)[n+]1cnn(C[C@](O)(c2ccc(F)cc2F)[C@@H](C)c2ncncc2F)c1.[Cl-] (stereo partly shown) , the value recorded as its T1/2 is 2.88 ± 1.22 h
